SYSTEM UNDER TEST: T1, recombinant murine (rm) CIRP (mouse, UniProt P60824 1-172)
T1 construct: For SPR it was bought (Cat # CSB-EP613483He0); For the cell assays it was made in the lab and, in the uptake experiments, labelled with FITC; also called eCIRP
T1 sequence (looked up): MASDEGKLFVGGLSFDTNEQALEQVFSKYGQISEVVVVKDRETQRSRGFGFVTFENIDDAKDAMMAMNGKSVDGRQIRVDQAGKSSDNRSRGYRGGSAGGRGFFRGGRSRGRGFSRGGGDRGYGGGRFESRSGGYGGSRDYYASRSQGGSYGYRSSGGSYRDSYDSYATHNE
ASSAY NOTES: SPR (Example 1); Example 1; paragraph 73 gives a separate value of 3.1×10^-7 M
RECORDED METRIC: pKd
Note on pKd: it is the negative log10 of concentration, concentration in mol/L.

Incoming: Give pKd for the following binder: RGDSSSYKTWNLRAFGWY (Synthetic 18-residue chimeric peptide: RGD followed by 15 residues of the mouse MFG-E8 discoidin domain 2) [MFG-E8-derived oligopeptide 3 (MOP3)]
Outgoing: 7.89

The values you see were collected from patent US20240197828A1.
